Provide the reported Short-time stability (1h, 56°C) Accuracy [%] of each item.
Assay: Short-term stability in spiked pooled human plasma (bench-top, 4 °C, 56 °C)
Conditions: validation standard MOV
Answers are plain numbers, in %.

Some compounds with recorded Short-time stability (1h, 56°C) Accuracy [%]:
- compound: "CCC1=C[C@@H]2CN(C1)Cc1c([nH]c3ccccc13)[C@@](C(=O)OC)(c1cc3c(cc1OC)N(C)[C@H]1[C@@](O)(C(=O)OC)[C@H](OC(C)=O)[C@]4(CC)C=CCN5CC[C@]31[C@@H]54)C2 [Vinorelbine]"
  value_measured: 37.2
- compound: "COC(=O)N[C@@H](C)CNc1nccc(-c2cn(C(C)C)nc2-c2cc(Cl)cc(NS(C)(=O)=O)c2F)n1 [Encorafenib]"
  value_measured: 54.0
- compound: "CNC(=O)c1cc(Oc2ccc(NC(=O)Nc3ccc(Cl)c(C(F)(F)F)c3)cc2)ccn1 [Sorafenib]"
  value_measured: 38.4
- compound: "Cc1ccc(C(=O)Nc2ccc(CN3CCN(C)CC3)c(C(F)(F)F)c2)cc1C#Cc1cnc2cccnn12 [Ponatinib]"
  value_measured: 50.8
- compound: "CS(=O)(=O)c1ccc(C(=O)Nc2ccc(Cl)c(-c3ccccn3)c2)c(Cl)c1 [Vismodegib]"
  value_measured: 65.7

Give one value of Short-time stability (1h, 56°C) Accuracy [%] per listed compound.
1. Cc1cn(-c2cc(NC(=O)c3ccc(C)c(Nc4nccc(-c5cccnc5)n4)c3)cc(C(F)(F)F)c2)cn1 [Nilotinib]
2. COC(=O)c1ccc2c(c1)NC(=O)/C2=C(\Nc1ccc(N(C)C(=O)CN2CCN(C)CC2)cc1)c1ccccc1 [Nintedanib]
3. O=C(c1cc(Cc2n[nH]c(=O)c3ccccc23)ccc1F)N1CCN(C(=O)C2CC2)CC1 [Olaparib]
4. O=c1[nH]c(=O)n([C@H]2C[C@H](O)[C@@H](CO)O2)cc1C(F)(F)F [Trifluridine]
5. O=C(Nc1cnn2ccc(N3CCC[C@@H]3c3cc(F)ccc3F)nc12)N1CC[C@H](O)C1 [Larotrectinib]
6. C=CC(=O)Nc1cc(Nc2nccc(-c3cn(C)c4ccccc34)n2)c(OC)cc1N(C)CCN(C)C [Osimertinib]
7. COc1cc2ncnc(Nc3ccc(F)c(Cl)c3)c2cc1NC(=O)/C=C/CN1CCCCC1 [Dacomitinib]

52.5
51.2
49.4
28.1
58.2
30.1
37.3

Give one value of Short-time stability (1h, 56°C) Accuracy [%] per listed compound.
1. Cc1c(C(=O)Nc2ccc(N3C[C@@H](C)O[C@@H](C)C3)nc2)cccc1-c1ccc(OC(F)(F)F)cc1 [Sonidegib]
2. CNC(=O)c1ccccc1Sc1ccc2c(/C=C/c3ccccn3)n[nH]c2c1 [Axitinib]
3. O=C(c1ccc(F)c(F)c1Nc1ccc(I)cc1F)N1CC(O)([C@@H]2CCCCN2)C1 [Cobimetinib]

[44.9, 54.6, 47.6]

* * *

Assay: Autosampler stability of ready for injection samples
Type: physicochemical, human
Details: validation standard MOV
Provide the reported Autosampler (24h, 4°C) Accuracy [%] of each item.
Numbers only, in %.

Some molecules with recorded Autosampler (24h, 4°C) Accuracy [%]:
- cpd_smiles: "CCN1CCN(Cc2ccc(Nc3ncc(F)c(-c4cc(F)c5nc(C)n(C(C)C)c5c4)n3)nc2)CC1"
  Autosampler (24h, 4°C) Accuracy [%] [%]: 100.7
- cpd_smiles: "CN(C)C/C=C/C(=O)Nc1cc2c(Nc3ccc(F)c(Cl)c3)ncnc2cc1O[C@H]1CCOC1"
  Autosampler (24h, 4°C) Accuracy [%] [%]: 102.6
- cpd_smiles: "CC(C)(C)c1nc(-c2cccc(NS(=O)(=O)c3c(F)cccc3F)c2F)c(-c2ccnc(N)n2)s1"
  Autosampler (24h, 4°C) Accuracy [%] [%]: 102.1
- cpd_smiles: "CCc1cc2c(cc1N1CCC(N3CCOCC3)CC1)C(C)(C)c1[nH]c3cc(C#N)ccc3c1C2=O"
  Autosampler (24h, 4°C) Accuracy [%] [%]: 104.1

Give one value of Autosampler (24h, 4°C) Accuracy [%] per listed molecule.
1. Cc1c(C(=O)Nc2ccc(N3C[C@@H](C)O[C@@H](C)C3)nc2)cccc1-c1ccc(OC(F)(F)F)cc1
2. Cc1nc(Nc2ncc(C(=O)Nc3c(C)cccc3Cl)s2)cc(N2CCN(CCO)CC2)n1
3. C[C@@H](Oc1cc(-c2cnn(C3CCNCC3)c2)cnc1N)c1c(Cl)ccc(F)c1Cl
4. COc1cc(N2CCC(N3CCN(C)CC3)CC2)ccc1Nc1ncc(Cl)c(Nc2ccccc2P(C)(C)=O)n1
5. CCC1=C[C@@H]2CN(C1)Cc1c([nH]c3ccccc13)[C@@](C(=O)OC)(c1cc3c(cc1OC)N(C)[C@H]1[C@@](O)(C(=O)OC)[C@H](OC(C)=O)[C@]4(CC)C=CCN5CC[C@]31[C@@H]54)C2

1: 99.4; 2: 102.8; 3: 108.4; 4: 104.4; 5: 97.7

* * *

Provide the reported Freeze-Thaw Accuracy [%] of each item.
Assay: Freeze-thaw stability in spiked pooled human plasma
Format: physicochemical
Settings: validation standard LLOV

Some compounds with recorded Freeze-Thaw Accuracy [%]:
- cpd_smiles: "CNC(=O)c1cc(Oc2ccc(NC(=O)Nc3ccc(Cl)c(C(F)(F)F)c3)c(F)c2)ccn1"
  metric: "Freeze-Thaw Accuracy [%]"
  value_measured: "101.6%"
- cpd_smiles: "CCOc1cc2ncc(C#N)c(Nc3ccc(OCc4ccccn4)c(Cl)c3)c2cc1NC(=O)/C=C/CN(C)C"
  metric: "Freeze-Thaw Accuracy [%]"
  value_measured: "64.7%"
- cpd_smiles: "C[C@@H](Oc1cc(-c2cnn(C3CCNCC3)c2)cnc1N)c1c(Cl)ccc(F)c1Cl"
  metric: "Freeze-Thaw Accuracy [%]"
  value_measured: "72.2%"

Attention now shifts to the item below.
# lookup: Freeze-Thaw Accuracy [%] of CNC(=O)c1cc(Oc2ccc(NC(=O)Nc3ccc(Cl)c(C(F)(F)F)c3)cc2)ccn1
103.3%

* * *

Provide the reported Long-term stability, 2 month, -20°C Accuracy [%] of each item.
Test: Long-term stability in spiked pooled human plasma
Settings: validation standard MOV
Answers are plain numbers, in %.

Some compounds with recorded Long-term stability, 2 month, -20°C Accuracy [%]:
- compound: "CS(=O)(=O)CCNCc1ccc(-c2ccc3ncnc(Nc4ccc(OCc5cccc(F)c5)c(Cl)c4)c3c2)o1"
  unit_info: "%"
  value_measured: 93.7
- compound: "CCCS(=O)(=O)Nc1ccc(F)c(C(=O)c2c[nH]c3ncc(-c4ccc(Cl)cc4)cc23)c1F"
  unit_info: "%"
  value_measured: 116.1
- compound: "Cc1c(C(=O)Nc2ccc(N3C[C@@H](C)O[C@@H](C)C3)nc2)cccc1-c1ccc(OC(F)(F)F)cc1"
  unit_info: "%"
  value_measured: 114.5
- compound: "O=c1[nH]c(=O)n([C@H]2C[C@H](O)[C@@H](CO)O2)cc1C(F)(F)F"
  unit_info: "%"
  value_measured: 109.3
- compound: "Nc1cccc2c1CN(C1CCC(=O)NC1=O)C2=O (centres unmarked) [Lenalidomide]"
  unit_info: "%"
  value_measured: 101.8

Give one value of Long-term stability, 2 month, -20°C Accuracy [%] per listed compound.
1. COc1cc2ncnc(Nc3ccc(F)c(Cl)c3)c2cc1OCCCN1CCOCC1
2. NC(=O)c1cccc2cn(-c3ccc([C@@H]4CCCNC4)cc3)nc12

1. 105.1
2. 105.3

# lookup: Long-term stability, 2 month, -20°C Accuracy [%] of CN(C)C/C=C/C(=O)Nc1cc2c(Nc3ccc(F)c(Cl)c3)ncnc2cc1O[C@H]1CCOC1
84.4

* * *

Experiment: Freeze-thaw stability in spiked pooled human plasma
Assay type: physicochemical
Conditions: validation standard MOV
metric: Freeze-Thaw Accuracy [%] (%)
Give bare numbers, in %.

- compound: "CC[C@H](Nc1ncnc2[nH]cnc12)c1nc2cccc(F)c2c(=O)n1-c1ccccc1 [Idelalisib]"
  Freeze-Thaw Accuracy [%] [%]: 96.5
- compound: "COc1cc2nccc(Oc3ccc(NC(=O)C4(C(=O)Nc5ccc(F)cc5)CC4)cc3)c2cc1OC [Cabozantinib]"
  Freeze-Thaw Accuracy [%] [%]: 102.2
- compound: "COc1cc2ncnc(Nc3ccc(F)c(Cl)c3)c2cc1OCCCN1CCOCC1 [Gefitinib]"
  Freeze-Thaw Accuracy [%] [%]: 97.8
- compound: "CNC(=O)c1ccc(N2C(=S)N(c3cnc(C#N)c(C(F)(F)F)c3)C(=O)C23CCC3)cc1F [Apalutamide]"
  Freeze-Thaw Accuracy [%] [%]: 94.8
- compound: "Cc1cc(Nc2ncc(Cl)c(Nc3ccccc3S(=O)(=O)C(C)C)n2)c(OC(C)C)cc1C1CCNCC1 [Ceritinib]"
  Freeze-Thaw Accuracy [%] [%]: 97.6
- compound: "CO[C@@H]1[C@H](N(C)C(=O)c2ccccc2)C[C@H]2O[C@]1(C)n1c3ccccc3c3c4c(c5c6ccccc6n2c5c31)C(=O)NC4 [Midostaurin]"
  Freeze-Thaw Accuracy [%] [%]: 94.6

Attention now shifts to the item below.
# lookup: Freeze-Thaw Accuracy [%] of C[C@@H](Oc1cc(-c2cnn(C3CCNCC3)c2)cnc1N)c1c(Cl)ccc(F)c1Cl [Crizotinib]
102.4
